Documented 14C-cholesterol, dpm across a set of molecules
# Tested on: cholesterol biosynthesis
# TEST_PROTOCOL: Inhibition test of in vivo cholesterol biosynthesis in rat
# Design: species or system rat (female SD)
# PARTICULARS: 3 mg/kg oral, n = 5, rat; dpm of produced 14C-cholesterol in 1 ml of plasma; control values 2282-3218 dpm
PROPERTY_MEASURED: 14C-cholesterol, dpm

INSERT INTO assay_data (molecule, target_or_test_system, recorded_measurement) VALUES
  ('COC/C(=C/c1cccc(CCc2cccc(-c3ccsc3)c2)c1)C/C=C/C#CC(C)(C)C [Example 38]', 'cholesterol biosynthesis', '350 dpm'),
  ('COCC(C/C=C/C#CC(C)(C)C)Cc1cccc(/C=C/c2cccc(-c3ccsc3)c2)c1 (centres unmarked) [Example 34]', 'cholesterol biosynthesis', '347 dpm'),
  ('CC(C)(C)C#C/C=C/C/C(=C\CCC/C=C/c1cccc(-c2ccsc2)c1)CO [Example 1]', 'cholesterol biosynthesis', '275 dpm'),
  ('CC(C)(C)C#C/C=C/CC(CO)Cc1cccc(/C=C/c2cccc(-c3ccsc3)c2)c1 (centres unmarked) [Example 12]', 'cholesterol biosynthesis', '1208 dpm'),
  ('CC(C)(C)C#C/C=C/C/C(=C\c1cccc(/C=C/c2cccc(-c3ccsc3)c2)c1)CO [Example 6]', 'cholesterol biosynthesis', '871 dpm');

###

# Test system: cholesterol biosynthesis
# TEST_PROTOCOL: Inhibition test of in vivo cholesterol biosynthesis in rat
# Parameters: species or system rat (female SD)
# PARTICULARS: 3 mg/kg oral, n = 5, rat; versus control group
# Protocol: Inhibition test of in vivo cholesterol biosynthesis In this in vivo test, female SD rats (5 weeks old) are used. […] The resultant residue is dissolved in a small amount of ethyl ether, and a pre-coated silica gel TLC is spotted with the total amount of the solution. […] Coloring is carried out with iodine, and radioactivity at the cholesterol part is assayed using a liquid scintillation counter. […]
PROPERTY_MEASURED: Cholesterol biosynthesis inhibition rate

INSERT INTO results (molecule, target_or_test_system, property_measured, recorded_measurement) VALUES
  ('CC(C)(C)C#C/C=C/CC(CO)Cc1cccc(/C=C/c2cccc(-c3ccsc3)c2)c1 (centres unmarked) [Example 12]', 'cholesterol biosynthesis', 'Cholesterol biosynthesis inhibition rate', '61%'),
  ('COC/C(=C/c1cccc(CCc2cccc(-c3ccsc3)c2)c1)C/C=C/C#CC(C)(C)C [Example 38]', 'cholesterol biosynthesis', 'Cholesterol biosynthesis inhibition rate', '85%'),
  ('CC(C)(C)C#C/C=C/C/C(=C\CCC/C=C/c1cccc(-c2ccsc2)c1)CO [Example 1]', 'cholesterol biosynthesis', 'Cholesterol biosynthesis inhibition rate', '91%'),
  ('COCC(C/C=C/C#CC(C)(C)C)Cc1cccc(/C=C/c2cccc(-c3ccsc3)c2)c1 (centres unmarked) [Example 34]', 'cholesterol biosynthesis', 'Cholesterol biosynthesis inhibition rate', '85%'),
  ('CC(C)(C)C#C/C=C/C/C(=C\c1cccc(/C=C/c2cccc(-c3ccsc3)c2)c1)CO [Example 6]', 'cholesterol biosynthesis', 'Cholesterol biosynthesis inhibition rate', '73%');

Hey, just so you know, these numbers are from patent US5444084A.
